Cited source for all entries: patent US20060241051A1

- STUDY_SYSTEM: human OT7T175 (metastin receptor) (human, UniProt Q969F8 1-398)
- Sequence (Q969F8 whole entry L364H): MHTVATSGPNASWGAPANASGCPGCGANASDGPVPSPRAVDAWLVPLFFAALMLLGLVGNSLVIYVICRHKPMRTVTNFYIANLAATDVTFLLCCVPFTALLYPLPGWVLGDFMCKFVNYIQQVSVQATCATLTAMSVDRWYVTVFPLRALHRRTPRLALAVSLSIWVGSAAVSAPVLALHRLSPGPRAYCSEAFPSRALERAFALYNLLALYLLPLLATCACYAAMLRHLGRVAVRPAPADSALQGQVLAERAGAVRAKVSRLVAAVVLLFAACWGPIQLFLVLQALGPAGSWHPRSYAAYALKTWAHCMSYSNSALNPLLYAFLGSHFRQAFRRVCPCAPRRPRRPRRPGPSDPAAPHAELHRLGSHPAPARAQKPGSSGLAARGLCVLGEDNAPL
- MEASUREMENT_PROTOCOL: cell-based or functional assay
Square brackets hold non-standard residues; d marks the D form. Ends that are not written are not given here. Arg(Me) = CNC(=N)NCCC[C@H](N)C(=O)O
MEASURED_ATTRIBUTE: intracellular Ca ion level-increasing activity (FLIPR)

Quick one: intracellular Ca ion level-increasing activity (FLIPR) for [dY]NWNSFGL[Arg(Me)]W-NH2 (N-terminus assumed; SMILES CNC(=N)NCCC[C@H](NC(=O)[C@H](CC(C)C)NC(=O)CNC(=O)[C@H](Cc1ccccc1)NC(=O)[C@H](CO)NC(=O)[C@H](CC(N)=O)NC(=O)[C@H](Cc1c[nH]c2ccccc12)NC(=O)[C@H](CC(N)=O)NC(=O)[C@H](N)Cc1ccc(O)cc1)C(=O)N[C@@H](Cc1c[nH]c2ccccc12)C(N)=O) [Compound No. 174: [D-Tyr1,Arg(Me)9,Trp10]MS10] ?
10 specific activity to metastin (1-54)
